observable: melting point

compound="OCCOC12CC(CO)CNC1Cc1c[nH]c3cccc2c13 (stereo not given)" result="198 to 205 °C"
compound=COc1cc2c(cc1OC)CN(CCc1ccc(NC(=O)c3cccc4c(=O)c5cccc(OC)c5sc34)cc1)CC2 result="218 to 219 °C"
compound=O=c1ccn(-c2cccc(C(F)(F)F)c2)nc1-c1ccoc1-c1ccccc1 result="159 to 163 °C"
compound=CCOC(=O)c1sc(C)nc1O result="104 °C"
compound="CC(C(=O)O)=C1CCC2C3CCC4=CC(=O)CCC4(C)C3CCC12C (stereo not given)" result="266 to 270 °C"
compound=COC(=O)c1ccc(-c2ccc(-c3cn([C@H]4CN5CCC4CC5)nn3)s2)cc1Cl result="200 °C"
compound=Cc1c(C)c(NC(=O)CC(C)(C)C)c2c(c1C)C(=O)C(C)(C)O2 result="158 to 159 °C"
compound=Nc1ncnc2c1c(-c1ccc(Oc3ccc(OCCO)cc3)cc1)cn2CCO result="166 °C"
compound="CS(=O)CCC(=O)Nc1ccc(OCC(O)CO)cc1 (stereo not given)" result="139 to 141 °C"
compound=O=C(NCc1ccccc1N1CCOCC1)c1ccn2nc(-c3ccccc3)cc2n1 result="190 to 192 °C"

====

Measured melting point of individual entries
observable: melting point

compound=Cc1cc(I)ccc1Nc1c(C2=NC(C)(C)CO2)ccc(F)c1F observable="melting point" result="104 °C"
compound=O=C(CC1CCN(CCc2ccccc2)CC1)c1ccc(F)cc1 observable="melting point" result="73 to 74 °C"
compound=CC(C)n1nc(-c2c(Oc3ccccc3)nc(N)nc2-c2ccccc2)ccc1=O observable="melting point" result="218 to 221 °C"
compound=N#Cc1ccc(Oc2cncc3sc(C(N)=O)cc23)cc1 observable="melting point" result="255 to 257 °C"
compound=NCC(=O)N1CCN(C(=O)c2cc(C(F)(F)F)cc(C(F)(F)F)c2)[C@H](Cc2c[nH]c3ccccc23)C1 observable="melting point" result="110 to 120 °C"
compound="CCOCCOC(=O)C1=C(C)NC(C)=C([N+](=O)[O-])C1c1cccc([N+](=O)[O-])c1 (configuration not stated)" observable="melting point" result="140 °C"
compound=CCn1c(N)c(-c2ncc[nH]2)c(=O)c2ccc(-c3ccc(CC(=O)NCc4ccncc4)nc3)nc21 observable="melting point" result="120 °C"
compound=C[C@]1(CN2CCN(C(=O)OCc3cc(Cl)cc(Cl)c3)CC2)Cn2cc([N+](=O)[O-])nc2O1 observable="melting point" result="129 to 130 °C"
compound=CCCC(=O)c1cnc2c(OC)cccc2c1Nc1ccc(O)cc1 observable="melting point" result="270 to 272 °C"
compound=COC(=O)c1c(C)cc2cc(OC)c(OC)cc2c1-c1ccnc(Br)c1 observable="melting point" result="148 to 150 °C"
compound=COc1ccc2c(c1)c(CC(=O)N(C(=O)NC1CCCCC1)C1CCCCC1)c(C)n2-c1ncnc2cc(Cl)ccc12 observable="melting point" result="105 to 107 °C"
compound=COc1ccc2c(c1)C(=O)C(=O)C1=C2OC2(CCN(Cc3ccc(F)cc3)CC2)CS1 observable="melting point" result="219 to 221 °C"
compound=O=C(CCCCCl)c1ccc2c(c1)Cc1cc(C(=O)CCCCCl)ccc1S2 observable="melting point" result="85 to 86.5 °C"
compound=Cn1ccnc1Sc1ccc(Nc2c(C#N)cnc3cc(Br)ccc23)cc1Cl observable="melting point" result="258 to 261 °C"
compound=CCCCc1ccc(-c2ccc3c(c2)CC[C@H]2N(C)C(=O)CC[C@]32C)cc1 observable="melting point" result="102 to 108 °C"
compound=CCCOc1ccccc1-c1ccc(-c2nnn[nH]2)c(=O)[nH]1 observable="melting point" result="229 to 231 °C"
compound="CC(O)Cn1nc2c3c(ccc([N+](=O)[O-])c31)CCC2 (configuration not stated)" observable="melting point" result="144 to 146 °C"
compound="N#Cc1ccc(CN2C(=O)C3(COc4cc5c(cc43)OCO5)c3ccccc32)o1 (configuration not stated)" observable="melting point" result="167 to 169 °C"
compound=C#CC[C@H](c1nc2cc(Cl)ccc2c(=O)n1Nc1ccccc1)N(CCCNC(=O)OCc1ccccc1)C(=O)c1cccc(Cl)c1F observable="melting point" result="103 to 105 °C"
compound=COc1cc(C(=O)N(C(C)C)C2CCCCC2)ccc1Oc1cc(OC)c(OC)c(OC)c1 observable="melting point" result="126 to 128 °C"
compound=COc1ccc2c(C3=CCNCC3)c[nH]c2c1 observable="melting point" result="193 to 194 °C"
compound="CCCCc1oc2ccccc2c1C(=O)NCc1ccc2c(-c3ccc(Cl)cc3)c(OC(Cc3ccccc3)C(=O)O)ccc2c1 (configuration not stated)" observable="melting point" result="169 to 172 °C"
compound=CCCN(C)CCOc1ccc(-n2ccc(OCc3ccc(Cl)cn3)cc2=O)cc1 observable="melting point" result="119 to 123 °C"
compound="CC(C)CC(NC(=O)C(NC(=O)OCc1ccccc1)C(C)C)C(=O)NC(CCCCNC(=O)OCc1ccccc1)C(=O)Oc1cccc2ccccc12 (configuration not stated)" observable="melting point" result="171 to 174 °C"
compound="CC(C)CN1CCCCC1C(=O)Nc1cc(C(F)(F)F)ccc1-c1cc(Oc2cccc3[nH]c(=O)c(N)nc23)ncn1 (configuration not stated)" observable="melting point" result="> 250 °C"
compound=O=C(O)c1cc(-c2ccccc2)c2ccccc2n1 observable="melting point" result="170 to 171 °C"
compound="CC(CCCc1ccccc1)Oc1cc(O)c2c(c1)OC(C)(C)CC2=O (configuration not stated)" observable="melting point" result="83 to 84 °C"
compound=O=C(c1ccccn1)c1nsc2nccn12 observable="melting point" result="147 to 148 °C"
compound="O=P1(NCCBr)OCCCN1CCBr (configuration not stated)" observable="melting point" result="58 to 59 °C"
compound=Cc1c[nH]c(CCC(=O)O)c1 observable="melting point" result="109 to 112 °C"
compound=COc1cc2cc3c(Nc4ccc(Sc5nccn5C)c(Cl)c4)c(C#N)cnc3cc2cc1OCCN1CCN(C)CC1 observable="melting point" result="184 to 186 °C"
compound=NS(=O)(=O)c1ccc(-c2c(COCCCO)n[nH]c2-c2ccc(Cl)cc2)cc1 observable="melting point" result="96 °C"
compound="CC(C)(C)NC(=O)N(Cc1ccccc1)CC(O)C(Cc1ccccc1)NC(=O)C(CC(N)=O)NC(=O)NCc1ccccc1 (configuration not stated)" observable="melting point" result="156 to 158 °C"
compound=O=[N+]([O-])c1ccc(F)c(-c2cncnc2)c1F observable="melting point" result="78 to 80 °C"
compound=Cc1c(CCC(=O)c2cn(Cc3ccccc3)c3ccccc23)ncn1C(c1ccccc1)(c1ccccc1)c1ccccc1 observable="melting point" result="186 to 188 °C"
compound=Cn1c2ccccc2c2c3ccc(Cl)cc3c(=O)[nH]c21 observable="melting point" result="> 310 °C"
compound=Cc1c(-c2ccccc2)n[nH]c1OCN1CCCC1 observable="melting point" result="88 °C"

====

observable: melting point

molecule=Cc1ccccc1-c1nc2n(c1-c1ccc(C3(NC(=O)OC(C)(C)C)CCC3)c(F)c1)-c1cccnc1Nc1ccccc1-2 result="138 to 140 °C"
molecule=CO/C=C(\C(=O)OC)c1ccccc1C result="68 to 70 °C"
molecule=Fc1ccc(C(=Cc2ccccc2)C(F)(F)F)cc1 result="43 to 45 °C"
molecule="CC(N)CC(=O)Nc1ccc(Nc2ccccc2)cc1 (stereo not given)" result="130 to 132 °C"
molecule="COC(=O)C1=C(C)Nc2ccccc2N(C(C)=O)C1c1cccc([N+](=O)[O-])c1 (stereo not given)" result="231 to 232 °C"
molecule=NC(=O)c1ccccc1C1c2ccc(Cl)cc2Oc2cc(Cl)ccc21 result="218 to 220 °C"
molecule=ClCc1cccc2c(C3CCCCC3)nccc12 result="88.4 to 89.4 °C"
molecule=CCOc1nn(CCOc2ccccc2CC(=O)O)cc1C(=O)NCc1ccc(Cl)cc1Cl result="167 to 169 °C"
molecule="CSCC(=O)Nc1ccc(C2=NNC(=O)CC2C)cc1 (stereo not given)" result="220 to 222 °C"
molecule=CCNC1=CC(=O)CC1 result="136 °C"
molecule=O=c1ccc2cccc(Oc3cc(-c4ccc(C(F)(F)F)cc4)ncn3)c2[nH]1 result="312 °C"
molecule=Brc1ccc2c(c1)C(c1ccncc1)=Cc1ccccc1O2 result="195 to 197 °C"
molecule="Cc1c(C2=CCC(Cc3ccccc3)(N(C)C)CC2)[nH]c2ccc(F)cc12 (stereo not given)" result="62 to 65 °C"
molecule="COc1ccc(C2CC(=O)N(Cc3ccc4ccc(Cl)cc4n3)C2)cc1OC1CCCC1 (stereo not given)" result="106 to 107 °C"
molecule=CCOC(=O)c1cc(OC)ccc1Nc1ccc(O)cc1 result="134 to 136 °C"
molecule=CCNC(=O)OCCCCCCCCC1Cc2c(c(OC)c(OC)c(OC)c2OC)C1 result="85 to 86 °C"
molecule=N#CC(N=Nc1cc(S(=O)(=O)O)ccc1OC(=O)c1ccccc1)=C(OC(=O)c1ccccc1)c1ccccc1 result="193 to 195 °C"
molecule=CC(=O)N1CCN(c2ccc(Nc3nc(N)c(C(=O)c4sccc4C)s3)cc2)CC1 result="290 to 292 °C"
molecule=FC(F)(F)c1ccc2c(c1)N(C1=CCCN1C1=NCCC1)c1ccccc1O2 result="140 to 142 °C"
molecule=N#C/C=C1\CCc2ncc3c(c21)CCO3 result="231 to 233 °C"
